Test: chemical genetic growth profiling, strain panel (AID 1159580);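 further: tested at 20 µM; growth read once vehicle control cultures reached saturation at 30 °C; 1 = growth at the plate median or of vehicle wells; lower values mean less growth of the strain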
Conditions: S. cerevisiae deletion strains, growth OD, locus YLR258W, strain gsy2, stronger effect = lower value
Out of some 5,500 compounds screened, about 2,000 (36%) were called active. About 18% were inconclusive and are not listed. This is one part of the list.
PROPERTY LABEL: normalized growth

>>> df
                                   compound     property_label  reading
0               O=c1c2ccccc2[se]n1-c1ccccc1  normalized growth   0.0609
1  O=C1c2c(O)ccc(O)c2C(=O)c2c(NCCNCCO)ccc(NCCNCCO)c21  normalized growth     0.94
2           COc1ccc(-c2cc(=O)c3ccccc3o2)cc1  normalized growth    0.823
3             Nc1nnc(-c2cccc(Cl)c2Cl)c(N)n1  normalized growth     1.02
4  C=CCc1ccccc1OCC(O)CNC(C)C (configuration not stated)  normalized growth     0.99
5  CN(N=O)C(=O)N[C@@H]1[C@@H](O)[C@H](O)[C@@H](CO)O[C@@H]1O  normalized growth    0.985
6       CC(C)Oc1ccc2c(=O)cc(-c3ccccc3)oc2c1  normalized growth    0.948

###

Assay: chemical genetic growth profiling, strain panel (AID 1159580)
Conditions: S. cerevisiae deletion strains, growth OD, locus YKL009W, strain mrt4, stronger effect = lower value
In all, about 5,500 compounds went through this assay and about 2,000 (36%) were called active. Not shown: some 18% with an inconclusive outcome. Some of the results follow.

COMPOUND	normalized growth
CN1CCc2c(c3ccccc3n2Cc2ccccc2)C1	0.934
COc1cc([C@@H]2c3cc4c(cc3C(O[C@@H]3O[C@@H]5CO[C@@H](c6cccs6)OC5[C@H](O)[C@H]3O)C3COC(=O)[C@@H]32)OCO4)cc(OC)c1O (stereo partly drawn)	1.03
CC1NC(=O)NC1=O (stereo not drawn)	1.03
C#CCOS(=O)OC1CCCCC1Oc1ccc(C(C)(C)C)cc1 (stereo not drawn)	0.971
CN(N=O)C(=O)N[C@@H]1[C@@H](O)[C@H](O)[C@@H](CO)O[C@@H]1O	1.05
CCC/C=C/C=C/[C@@H]1C[C@@H](O)[C@@H](O)C(=O)[C@H]1C=O	0.76
C[n+]1cc2c3c(ccc2c2ccc4cc5c(cc4c21)OCO5)OCO3	0.922
CC(=O)Nc1ccc(O)cc1	0.952

###

# Lookup of reported normalized growth keyed by entry
Experiment: chemical genetic growth profiling, strain panel (AID 1159580);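 further: tested at 20 µM; growth read once vehicle control cultures reached saturation at 30 °C; 1 = growth at the plate median or of vehicle wells; lower values mean less growth of the strain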
Conditions: S. cerevisiae deletion strains, growth OD, locus YER155C, strain BEM2 (second series), stronger effect = lower value
Out of some 5,500 compounds screened, about 2,000 (36%) were called active. Inconclusive results (about 18%) are left out. The list shows a part of the results.

COMPOUND	normalized growth
CC(C)Oc1ccc2c(=O)cc(-c3ccccc3)oc2c1	0.679
N[C@H](CO)Cc1ccccc1	1.02
COc1ccc(-c2cc(=O)c3ccccc3o2)cc1	0.283
COc1ccc(-c2cc(=O)c3c(OC)c(OC)c(OC)c(OC)c3o2)cc1	0.51
CC(C)(O)[C@@H]1CC[C@](C)([C@H]2[C@@H](O)C[C@@]3(C)C4C[C@H](O[C@@H]5O[C@H](CO)[C@@H](O)[C@H](O)[C@H]5O)C5C(C)(C)[C@@H](O[C@@H]6OC[C@@H](O)[C@H](O)[C@H]6O)CC[C@@]56C[C@@]46CC[C@]23C)O1 (stereo partly drawn)	1
COc1cc2c(cc1OC)-c1cc3ccc(OC)c(OC)c3c[n+]1CC2	0.909
CC1(C)O[C@@H]2CC3C4C[C@H](F)C5=CC(=O)C=C[C@]5(C)[C@@]4(F)[C@@H](O)C[C@]3(C)[C@]2(C(=O)CO)O1 (stereo partly drawn)	1.02
OC1C(O)C(O)C(O)C(O)C1O (stereo not drawn)	1.01
O=c1cc(-c2cccc(O)c2)oc2ccc(O)cc12	0.925
[N-]=[N+]=CC(=O)OCC(N)C(=O)O (stereo not drawn)	1.05
O=C(O)c1nc2cc(Cl)c(Cl)cc2[nH]c1=O	1.03
COc1cc([C@@H]2c3cc4c(cc3C(O[C@@H]3O[C@@H]5CO[C@@H](c6cccs6)OC5[C@H](O)[C@H]3O)C3COC(=O)[C@@H]32)OCO4)cc(OC)c1O (stereo partly drawn)	1.01
COc1cccc(-c2cc(=O)c3ccc(OC)cc3o2)c1	0.699
O=c1cc(-c2ccc(O)cc2)oc2ccc(O)cc12	0.963
O=C(O)/C=C(\CC(=O)O)C(=O)O	0.983
CC(=O)CC(c1ccccc1)c1c(O)c2ccccc2oc1=O (stereo not drawn)	1.01
O=c1c2ccccc2oc2ccccc12	0.386
COc1ccc(-c2cc(=O)c3c(O)c(OC)c(OC)c(OC)c3o2)cc1	0.978
C=CCCCCCCCCCCCC(O)CC(O)CO (stereo not drawn)	0.986
C=C1C(N)CC2CC1C2(C)C (stereo not drawn)	1
CC(=O)Nc1ccc(OC(=O)c2ccccc2O)cc1	0.765
O=c1cc(-c2ccc(O)c(O)c2)oc2ccccc12	0.926
C/C(=C\C(=O)OCCCCCCCCC(=O)O)C[C@@H]1OC[C@H](C[C@@H]2O[C@H]2[C@@H](C)[C@H](C)O)[C@@H](O)[C@H]1O	0.959

###

Experiment: chemical genetic growth profiling, strain panel (AID 1159580);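 further: tested at 20 µM; growth read once vehicle control cultures reached saturation at 30 °C; 1 = growth at the plate median or of vehicle wells; lower values mean less growth of the strain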
Conditions: S. cerevisiae deletion strains, growth OD, locus YDR159W, strain sac3, stronger effect = lower value
About 2,000 (36%) of roughly 5,500 compounds were called active. Another 18% or so got no clear call; they are omitted. Some of the results follow.
PROPERTY LABEL: normalized growth

In [3]: df
Out[3]:
                                    molecule  reading
 0            O=C1CN2Cc3c(ccc(Cl)c3Cl)N=C2N1    0.965
 1           C[N+]1(CCCCC[N+]2(C)CCCC2)CCCC1    0.991
 2  O=C1c2c(O)ccc(O)c2C(=O)c2c(NCCNCCO)ccc(NCCNCCO)c21    0.788
 3  CCCN1C[C@H](CSC)C[C@@H]2c3cccc4[nH]cc(c34)C[C@H]21    0.989
 4       Cn1c(=O)c2[nH]c(C3CCCC3)nc2n(C)c1=O    0.989
 5  CC1(C)O[C@@H]2CC3C4CCC5=CC(=O)C=C[C@]5(C)[C@@]4(F)[C@@H](O)C[C@]3(C)[C@]2(C(=O)CO)O1 (stereo partly specified)    0.928
 6             O=C(/C=C/c1ccccc1)c1ccc(O)cc1     0.26
 7               O=c1c2ccccc2[se]n1-c1ccccc1    0.854
 8    CCN(CC)CCNc1ccc(CO)c2sc3ccccc3c(=O)c12        1
 9         O=c1c(-c2ccccc2)coc2cc(O)cc(O)c12     1.08
10  NS(=O)(=O)c1cc2c(cc1C(F)(F)F)NCNS2(=O)=O    0.966
11  CCN1CCN(c2cc3c(cc2F)c(=O)c(C(=O)O)cn3C2CC2)CC1     1.01
12  O=C(O)c1cn(-c2ccc(F)cc2)c2cc(N3CCNCC3)c(F)cc2c1=O     0.96
13         CC1=CCc2c(cc3oc(C)cc(=O)c3c2O)OC1     1.02
14  CC(C)=CCc1c2c(c(O)c3c(=O)c(O)c(-c4ccccc4)oc13)C=CC(C)(C)O2    0.876
15  C=C1C2CC[C@@]3(C)[C@H](c4ccoc4)OC(=O)C[C@]13O[C@H]1CC(=O)C(C)(C)[C@H](C(O)C(=O)OC)[C@@]21C (stereo partly specified)    0.995

###

compounds and their reported normalized growth
Experiment: chemical genetic growth profiling, strain panel (AID 1159580);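 further: tested at 20 µM; growth read once vehicle control cultures reached saturation at 30 °C; 1 = growth at the plate median or of vehicle wells; lower values mean less growth of the strain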
Details: S. cerevisiae deletion strains, growth OD, locus YBR009C, strain hhf1, stronger effect = lower value
The whole screen tested about 5,500 compounds, of which about 2,000 (36%) were called active. Inconclusive results (about 18%) are left out. This is one part of the list.

COMPOUND	normalized growth
CC(C)(O)[C@@H]1CC[C@](C)([C@H]2[C@@H](O)C[C@@]3(C)C4C[C@H](O[C@@H]5O[C@H](CO)[C@@H](O)[C@H](O)[C@H]5O)C5C(C)(C)[C@@H](O[C@@H]6OC[C@@H](O)[C@H](O)[C@H]6O)CC[C@@]56C[C@@]46CC[C@]23C)O1 (stereo not given in full)	1.01
COc1cc2c3cc1Oc1cc(ccc1O)C[C@@H]1c4c(cc(OC)c(O)c4Oc4ccc(cc4)C[C@@H]3N(C)CC2)CC[N+]1(C)C	0.943
CCOC(=O)C1C(C=C(C)C)C1(C)C (stereo not given)	0.998
CN(C)CCC=C1c2ccccc2C=Cc2ccccc21	0.99
CN1CCOC(c2ccccc2)c2ccccc2C1 (stereo not given)	0.984
CC(=O)O[C@H]1C[C@@H](O)C(C)(C)C2C[C@@H](OC(C)=O)[C@]3(C)C(CC[C@@]4(C)[C@H](c5ccoc5)OC(=O)C5OC543)[C@]21C (stereo not given in full)	0.997
CC(C)(C)C(=O)C(Oc1ccc(Cl)cc1)n1cncn1 (stereo not given)	0.133
CC1(C)O[C@@H]2CC3C4C[C@H](F)C5=CC(=O)C=CC5(C)C4C(O)CC3(C)[C@]2(C(=O)CO)O1 (stereo not given in full)	1.01
COc1cccc2c1cc([N+](=O)[O-])c1c(C(=O)O)cc3c(c12)OCO3	1.03
COc1c(O)cc2c(-c3ccccc3)cc(=O)oc2c1OC	0.994
